- System: collagen type 1 (Col1a2) gene expression in rat tail tendon fascicles
- measurement protocol: Ex vivo assay, tendon fascicles, collagen type 1 mRNA (qPCR)
- Type: cell-based, Sprague Dawley rat
- condition description: 96 h; Table 1; rat tail tendon fascicles, four days, delta-delta Ct; read-out: Ex vivo Col1a2 (EC50 uM)
recorded metric: EC50 (µM)

| compound | recorded metric | measured result |
| --- | --- | --- |
| N#C[C@H]1CC(=O)CC[C@@H]1n1cc(C(N)=O)c(Nc2ccc(C(F)(F)F)cc2)n1 [reference compound] | EC50 | 0.94 |

====

- assayed target: recombinant human Jak2 (aa808-1132) (Homo sapiens (Human))
- Sequence (O60674 808-1132): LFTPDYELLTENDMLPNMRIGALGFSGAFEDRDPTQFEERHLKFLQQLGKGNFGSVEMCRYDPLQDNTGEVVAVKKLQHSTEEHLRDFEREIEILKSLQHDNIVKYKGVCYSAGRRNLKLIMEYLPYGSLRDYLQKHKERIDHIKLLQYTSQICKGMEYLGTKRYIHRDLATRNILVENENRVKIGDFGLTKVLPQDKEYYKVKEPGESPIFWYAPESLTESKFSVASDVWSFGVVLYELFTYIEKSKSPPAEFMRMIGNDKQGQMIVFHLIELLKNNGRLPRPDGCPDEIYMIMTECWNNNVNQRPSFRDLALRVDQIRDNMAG
- measurement protocol: Kinase panel, substrate peptide phosphorylation (Caliper mobility shift), JAK2
- Format: biochemical
recorded metric: IC50 (µM)

| compound | endpoint unit | measured result |
| --- | --- | --- |
| N#C[C@@H]1C[C@H](N2CCC2)CC[C@H]1n1cc(C(N)=O)c(Nc2ccc(C(F)(F)F)cc2)n1 | µM | 0.24 |
| N#C[C@H]1C[C@@H](N2CCC2)CC[C@@H]1n1cc(C(N)=O)c(Nc2ccc(C(F)(F)F)cc2)n1 [reference compound] | µM | 2.7 |
| N#C[C@H]1C[C@H](O)CC[C@@H]1n1cc(C(N)=O)c(Nc2ccc(C(F)(F)F)cc2)n1 [reference compound] | µM | 0.15 |

====

Examples of molecules with documented EC50 follow.
- Test system: mouse immortalized TT-D6 Scx-luciferase (ScxL) cell line; transcriptional activation of Scleraxis (Scx) gene
- measurement protocol: SCX-LUC in vitro assay (scleraxis promoter luciferase reporter)
- Format: cell-based
- condition description: Mus musculus, 96 h; Examples table; TT-D6 Scx-luciferase cells, 1 ng/ml TGFβ1, four days; read-out: Scx-Luc (EC50 μM)
recorded metric: EC50 (µM)

| molecule | measured result |
| --- | --- |
| Nc1n[nH]c2ccc(-c3ccc(S(=O)(=O)N[C@H]4CCC[C@@H]4O)cc3Cl)nc12 | 0.026 |
| CC(O)(C1CN(S(=O)(=O)c2ccc(-c3ccc4[nH]nc(N)c4n3)c(Cl)c2)CCN1)C(F)(F)F (stereo not shown) | 2.19 |
| CS(=O)(=O)C1CN(S(=O)(=O)c2ccc(-c3ccc4[nH]nc(N)c4n3)c(Cl)c2)C1 | 5.74 |
| Cc1cc(S(=O)(=O)NC2(CO)CCCC2)ccc1-c1ccc2[nH]nc(N)c2n1 | 0.811 |
| Cc1cc(S(=O)(=O)N[C@H]2CC[C@@](O)(C(F)(F)F)CC2)ccc1-c1ccc2[nH]nc(N)c2n1 | 0.354 |
| COc1ccc(S(=O)(=O)Nc2ccc(-c3ccc4[nH]nc(N)c4n3)c(Cl)c2)cc1 | 0.909 |
| Nc1n[nH]c2ccc(-c3ccc(NS(=O)(=O)c4cccc(F)c4)cc3Cl)nc12 | 2.25 |
| Nc1n[nH]c2ccc(-c3ccc(S(=O)(=O)N[C@H]4CC[C@@H](O)CC4)cc3Cl)nc12 | 2.02 |
| Nc1n[nH]c2ccc(-c3ccc(NS(=O)(=O)c4ccc5ccccc5c4)cc3Cl)nc12 | 2.61 |
| Cc1cc(S(=O)(=O)N2CC3CCCC3C2)ccc1-c1ccc2[nH]nc(N)c2n1 (stereo not shown) | 0.598 |
| Cc1cc(S(=O)(=O)N[C@H]2C[C@@H](CO)C2)ccc1-c1ccc2[nH]nc(N)c2n1 | 5.34 |
| Cc1ccc(O)c(S(=O)(=O)Nc2ccc(-c3ccc4[nH]nc(N)c4n3)c(Cl)c2)c1 | 1.94 |
| NC(=O)[C@H]1C[C@@H](F)CN1S(=O)(=O)c1ccc(-c2ccc3[nH]nc(N)c3n2)c(Cl)c1 | 6.16 |
| Cc1cc(S(=O)(=O)N2CC(F)(F)C[C@H]2CO)ccc1-c1ccc2[nH]nc(N)c2n1 | 0.593 |
| Nc1n[nH]c2ccc(-c3ccc(S(=O)(=O)N[C@H]4C[C@](O)(C(F)(F)F)C4)cc3Cl)nc12 | 0.183 |
| Nc1n[nH]c2ccc(-c3ccc(S(=O)(=O)N4CC(F)(F)C4)cc3Cl)nc12 | 2.03 |

The values you see were collected from patent US10766894B2.
